Target: Histamine H3 receptor (Homo sapiens)
Sequence (Q9Y5N1 whole entry): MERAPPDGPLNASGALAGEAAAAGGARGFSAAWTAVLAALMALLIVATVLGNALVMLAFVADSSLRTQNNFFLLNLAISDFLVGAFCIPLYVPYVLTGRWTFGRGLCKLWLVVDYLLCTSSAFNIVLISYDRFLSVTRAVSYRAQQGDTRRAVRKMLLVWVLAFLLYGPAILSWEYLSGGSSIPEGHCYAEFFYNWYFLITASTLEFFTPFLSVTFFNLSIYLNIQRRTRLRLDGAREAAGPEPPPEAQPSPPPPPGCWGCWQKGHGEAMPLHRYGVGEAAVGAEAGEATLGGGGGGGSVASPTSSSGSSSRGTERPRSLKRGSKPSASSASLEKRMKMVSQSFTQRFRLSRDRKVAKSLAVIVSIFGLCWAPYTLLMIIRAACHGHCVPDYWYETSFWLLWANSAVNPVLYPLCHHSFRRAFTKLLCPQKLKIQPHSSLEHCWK
pKi: −log10 of the molar value.
Listed here are molecules together with their documented pKi.
quantity_name: pKi

# structure_smiles, quantity_name, number
rows = [
    ("Fc1ccc2c(C3CCN(CCCOc4ccc(CN5CCCCC5)cc4)CC3)noc2c1", "pKi", 6.57),
    ("Fc1ccc2c(C3CCN(CCCOc4ccc(CN5CCOCC5)cc4)CC3)noc2c1", "pKi", 6.78),
    ("CC1CCN(CCc2ccc(OCCCN3CCC(c4noc5cc(F)ccc45)CC3)cc2)CC1", "pKi", 7.92),
    ("Fc1ccc2c(C3CCN(CCCOc4ccc(CN5CCCC5)cc4)CC3)noc2c1", "pKi", 7.03),
    ("Fc1ccc2c(C3CCN(CCCOc4ccc(CN5CCOCC5)c(Cl)c4)CC3)noc2c1", "pKi", 6.79),
    ("COc1cc(CN2CCCCC2)ccc1OCCCN1CCC(c2noc3cc(F)ccc23)CC1", "pKi", 6.59),
    ("Fc1ccc2c(C3CCN(CCCOc4ccc(CN5CCOCC5)cc4Cl)CC3)noc2c1", "pKi", 6.83),
    ("Fc1ccc2c(C3CCN(CCCOc4ccc(CCN5CCCCC5)cc4)CC3)noc2c1", "pKi", 7.87),
    ("Cc1cc(OCCCN2CCC(c3noc4cc(F)ccc34)CC2)ccc1CN1CCCC1", "pKi", 6.95),
]

---

Assay: Therapeutic index, ratio of ED50 for induction of catalepsy in po dosed mouse to ED50 for antipsychotic activity in po dosed mouse assessed as reduction in MK-801-induced hyperlocomotor activity
Format: toxicity, organism-based
Conditions: in vivo, read-out: Ratio ED50
quantity_name: selectivity ratio

# compound, number
records = [
    ("O=C(CCCN1CCC(O)(c2ccc(Cl)cc2)CC1)c1ccc(F)cc1 [HALOPERIDOL]", 2.9),
]

---

What follows is a record of Ki for Alpha-1A adrenergic receptor (Homo sapiens, UniProt P35348).
quantity_name: Ki (nM)

# structure_smiles, test_system, quantity_name, number
data = [
    ("Cc1cc(=O)oc2c(Cl)c(OCCCCN3CCC(c4noc5cc(F)ccc45)CC3)ccc12", "Alpha-1A adrenergic receptor (Homo sapiens, UniProt P35348)", "Ki", 2570),
    ("O=C(CCCN1CCC(c2noc3cc(F)ccc23)CC1)c1cc2c3c(c1)CCN3C(=O)CC2", "Alpha-1A adrenergic receptor (Homo sapiens, UniProt P35348)", "Ki", 43.1),
    ("Fc1ccc2c(C3CCN(CCCOc4ccc(CCN5CCOCC5)cc4)CC3)noc2c1", "Alpha-1A adrenergic receptor (Homo sapiens, UniProt P35348)", "Ki", 438),
    ("O=c1ccc(OCCCN2CCC(c3noc4cc(F)ccc34)CC2)nn1-c1c(F)cccc1F", "Alpha-1A adrenergic receptor (Homo sapiens, UniProt P35348)", "Ki", 337),
    ("Fc1ccc2c(C3CCN(CCCOc4ccc(CCN5CCCCC5)cc4)CC3)noc2c1", "Alpha-1A adrenergic receptor (Homo sapiens, UniProt P35348)", "Ki", 536),
    ("CN1CCN(Cc2ccc(OCCCN3CCC(c4noc5cc(F)ccc45)CC3)cc2)CC1", "Alpha-1A adrenergic receptor (Homo sapiens, UniProt P35348)", "Ki", 332),
    ("CN1CCN(Cc2ccc(OCCCCN3CCC(c4noc5cc(F)ccc45)CC3)cc2)CC1", "Alpha-1A adrenergic receptor (Homo sapiens, UniProt P35348)", "Ki", 354),
]

---

Target: D(2) dopamine receptor (Homo sapiens, UniProt P14416)
Sequence (P14416 whole entry): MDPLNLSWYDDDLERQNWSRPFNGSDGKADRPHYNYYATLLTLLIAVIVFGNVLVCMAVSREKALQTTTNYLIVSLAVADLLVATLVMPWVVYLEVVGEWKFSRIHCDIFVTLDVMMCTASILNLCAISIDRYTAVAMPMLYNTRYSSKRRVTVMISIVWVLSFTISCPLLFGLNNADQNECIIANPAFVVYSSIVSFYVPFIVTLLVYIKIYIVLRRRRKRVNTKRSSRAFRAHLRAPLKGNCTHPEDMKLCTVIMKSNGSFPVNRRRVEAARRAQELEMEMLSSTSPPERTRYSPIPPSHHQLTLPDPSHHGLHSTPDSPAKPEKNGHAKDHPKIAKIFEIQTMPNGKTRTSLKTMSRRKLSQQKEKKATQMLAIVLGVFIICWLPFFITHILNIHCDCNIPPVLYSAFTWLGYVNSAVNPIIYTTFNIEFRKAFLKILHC
Test: Antagonist activity at D2 receptor (unknown origin)

# structure_smiles, value_unit, IC50
records = [
    ("Fc1ccc2c(C3CCN(CCCOc4ccc(CCN5CCOCC5)cc4)CC3)noc2c1", "nM", 11.3),
]

---

Listed here are compounds together with their documented log10 Ki.
Biological target: 5-hydroxytryptamine receptor 1A (Homo sapiens, UniProt P08908)
Sequence (P08908 whole entry): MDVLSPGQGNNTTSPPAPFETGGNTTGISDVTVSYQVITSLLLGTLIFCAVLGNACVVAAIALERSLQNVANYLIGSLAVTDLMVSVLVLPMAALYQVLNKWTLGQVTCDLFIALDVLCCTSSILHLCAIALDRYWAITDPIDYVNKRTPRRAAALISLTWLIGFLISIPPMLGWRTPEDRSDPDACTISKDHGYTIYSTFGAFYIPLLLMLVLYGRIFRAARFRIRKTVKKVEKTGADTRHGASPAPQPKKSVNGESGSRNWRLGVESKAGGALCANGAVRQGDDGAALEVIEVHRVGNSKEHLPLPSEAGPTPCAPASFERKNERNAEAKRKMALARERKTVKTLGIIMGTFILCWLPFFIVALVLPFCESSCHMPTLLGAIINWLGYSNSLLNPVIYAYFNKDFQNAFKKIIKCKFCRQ
quantity_name: log10 Ki (log10 of the value in µM)

# structure_smiles, log10 Ki
records = [
    ("Fc1ccc2c(C3CCN(CCCCOc4ccc(CN5CCOCC5)cc4)CC3)noc2c1", -1.02),
    ("Fc1ccc2c(C3CCN(CCCOc4ccc(CN5CCOCC5)cc4Cl)CC3)noc2c1", -0.98),
    ("CC1CCN(CCc2ccc(OCCCN3CCC(c4noc5cc(F)ccc45)CC3)cc2)CC1", -2.02),
    ("Cc1cc(=O)oc2c(Cl)c(OCCCCN3CCC(c4noc5cc(F)ccc45)CC3)ccc12", -2.48),
    ("COc1cc(CN2CCCC2)ccc1OCCCN1CCC(c2noc3cc(F)ccc23)CC1", -1.11),
    ("CN1CCN(CCc2ccc(OCCCN3CCC(c4noc5cc(F)ccc45)CC3)cc2)CC1", -1.79),
    ("Cc1cc(OCCCN2CCC(c3noc4cc(F)ccc34)CC2)ccc1CN1CCOCC1", -1.00),
    ("Fc1ccc2c(C3CCN(CCCOc4ccc(CN5CCCC5)cc4Cl)CC3)noc2c1", -1.10),
    ("Fc1ccc2c(C3CCN(CCCOc4ccc(CN5CCOCC5)c(Cl)c4)CC3)noc2c1", -0.82),
    ("CN1CCN(Cc2ccc(OCCCN3CCC(c4noc5cc(F)ccc45)CC3)cc2)CC1", -1.92),
]

---

Molecular target: 5-hydroxytryptamine receptor 2A (Homo sapiens, UniProt P28223)
Sequence (P28223 whole entry): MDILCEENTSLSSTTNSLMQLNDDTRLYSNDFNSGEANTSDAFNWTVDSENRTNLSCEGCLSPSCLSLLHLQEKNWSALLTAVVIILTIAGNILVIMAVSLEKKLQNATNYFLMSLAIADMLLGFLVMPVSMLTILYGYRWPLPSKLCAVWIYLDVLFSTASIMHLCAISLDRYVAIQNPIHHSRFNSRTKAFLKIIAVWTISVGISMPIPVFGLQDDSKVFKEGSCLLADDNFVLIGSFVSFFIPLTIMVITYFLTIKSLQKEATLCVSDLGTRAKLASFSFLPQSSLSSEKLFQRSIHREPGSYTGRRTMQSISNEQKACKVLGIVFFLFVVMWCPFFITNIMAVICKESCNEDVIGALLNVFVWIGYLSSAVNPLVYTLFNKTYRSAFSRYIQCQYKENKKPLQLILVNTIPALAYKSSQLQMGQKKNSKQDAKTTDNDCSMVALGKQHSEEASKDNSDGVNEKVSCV
pKi: −log10 of the molar value.
quantity_name: pKi

# structure_smiles, quantity_name, number
data = [
    ("Fc1ccc2c(C3CCN(CCCOc4ccc(CN5CCCC5)cc4)CC3)noc2c1", "pKi", 8.07),
    ("COc1cc(CN2CCCCC2)ccc1OCCCN1CCC(c2noc3cc(F)ccc23)CC1", "pKi", 8.05),
    ("CC1CCN(CCc2ccc(OCCCCN3CCC(c4noc5cc(F)ccc45)CC3)cc2)CC1", "pKi", 8.29),
    ("Fc1ccc2c(C3CCN(CCCOc4ccc(CN5CCCCC5)c(F)c4)CC3)noc2c1", "pKi", 8.21),
    ("CN1CCN(Cc2ccc(OCCCN3CCC(c4noc5cc(F)ccc45)CC3)cc2)CC1", "pKi", 8.33),
]

---

Target: UniProt P28223
Threshold check on Ki: strictly below 5 nM is 1; on or above 5 nM is 0.

# structure_smiles, qualitative_label
data = [
    ("Cc1cc(=O)oc2c(Cl)c(OCCCCN3CCC(c4noc5cc(F)ccc45)CC3)ccc12", 1),
    ("Fc1ccc2c(C3CCN(CCCOc4ccc(CN5CCOCC5)c(F)c4)CC3)noc2c1", 0),
    ("Fc1ccc2c(C3CCN(CCCOc4ccc(CN5CCCC5)cc4Cl)CC3)noc2c1", 0),
    ("O=c1ccc(OCCCN2CCC(c3noc4cc(F)ccc34)CC2)nn1-c1c(F)cccc1F", 1),
    ("Fc1ccc2c(C3CCN(CCCOc4ccc(CCN5CCOCC5)cc4)CC3)noc2c1", 0),
    ("Fc1ccc2c(C3CCN(CCCOc4ccc(CCN5CCCCC5)cc4)CC3)noc2c1", 0),
    ("Fc1ccc2c(C3CCN(CCCOc4ccc(CN5CCOCC5)cc4F)CC3)noc2c1", 0),
    ("CN1CCN(Cc2ccc(OCCCCN3CCC(c4noc5cc(F)ccc45)CC3)cc2)CC1", 1),
]

---

What follows is a record of Ki for 5-hydroxytryptamine receptor 2C (Homo sapiens).
quantity_name: Ki (nM)

# structure_smiles, value_unit, number
records = [
    ("Cc1cc(=O)oc2c(Cl)c(OCCCCN3CCC(c4noc5cc(F)ccc45)CC3)ccc12", "nM", 1700),
    ("Fc1ccc2c(C3CCN(CCCOc4ccc(CCN5CCCCC5)cc4)CC3)noc2c1", "nM", 753),
]

---

Target: UniProt:P08908
Experiment: Antagonist activity at 5-HT1A receptor (unknown origin)
pIC50: −log10 of the molar value.

# structure_smiles, pIC50
measured = [
    ("Fc1ccc2c(C3CCN(CCCOc4ccc(CCN5CCOCC5)cc4)CC3)noc2c1", 6.61),
]
